Target: UniProt:O76074
// returns 0.0 unless IC50 is strictly below 20 nM, in which case 1.0

Worked examples, 3 molecules total:
In: Please determine if CCCOc1ccc([N+](=O)[O-])cc1-c1nc2c(c(C)nn2CC)c(=O)[nH]1 is below 20 nM in terms of IC50.
Out: 1.0

In: Here's an entry: CCCOc1ccccc1-c1nc2ncncc2c(=O)[nH]1 . Is its IC50 below 20 nM?
Out: 0.0

In: hey, is IC50 for CCCOc1ccc(-c2nc(C)cs2)cc1-c1nc2c(c(C)nn2C)c(=O)[nH]1 lower than 20 nM or not?
Out: 1.0

Okay, next one:
In: Is IC50 of CCCOc1ccc(NC(=O)CN2CCN(C)CC2)cc1-c1nc2c(c(C)nn2C)c(=O)[nH]1 strictly below 20 nM?
Out: 1.0

---

Target: cGMP-specific 3',5'-cyclic phosphodiesterase (Homo sapiens)
pIC50: −log10 of the molar value.
Assign met whenever pIC50 does not fall below 8; assign not met whenever it does.

In: Does the compound CCCOc1ccccc1-c1nc2c(c(C)nn2C(C)(C)C)c(=O)[nH]1 have recorded pIC50 that is 8 or more?
Out: not met

In: Hello, I need to know if CCCOc1ccc(C(=O)CN2CCOCC2)cc1-c1nc2c(c(C)nn2C)c(=O)[nH]1 has measured pIC50 not below 8. Thanks!
Out: met

In: Given the entry CCCOc1ccc(NS(C)(=O)=O)cc1-c1nc2c(c(C)nn2C)c(=O)[nH]1 , answer whether its pIC50 meets or surpasses 8.
Out: met

In: Determine whether this compound has pIC50 no lower than 8: CCCOc1ccccc1-c1nc(O)c2c(C)snc2n1
Out: not met

In: Item CCCOc1ccccc1-c1nc(O)c2c[nH]nc2n1 with pIC50 of 8 or above?
Out: not met

Further cases:
In: # bool: pIC50 of CCCOc1ccc(-c2csc(C)n2)cc1-c1nc2c(c(C)nn2C)c(=O)[nH]1 >= 8
Out: met

In: Form field: pIC50 at least 8? Entry: CCCOc1ccc(-c2n[nH]c(-c3ccccc3)n2)cc1-c1nc2c(c(C)nn2CC)c(=O)[nH]1
Out: met

In: # check: pIC50 of CCCOc1ccccc1-c1nc2c(c(C)nn2Cc2ccccc2)c(=O)[nH]1 is greater than or equal to 8
Out: not met

In: Please tell me: is the compound CCCOc1ccc(-c2csc(-c3ccccc3)n2)cc1-c1nc2c(c(C)nn2CC)c(=O)[nH]1 at or over 8 in terms of pIC50?
Out: met

In: In plain terms: is recorded pIC50 at least 8 for CCCOc1ccccc1-c1nc2cnccc2c(=O)[nH]1 ?
Out: not met

In: Item CCCOc1ccccc1-c1nc2c(c(C)nn2CCC)c(=O)[nH]1 with pIC50 of 8 or above?
Out: met

In: Quick check: does CCCOc1ccccc1-c1nc(O)c2ccsc2n1 have pIC50 greater than or equal to 8?
Out: not met

In: Determine whether this compound has pIC50 no lower than 8: CCCOc1ccc(NC(=O)NCC)cc1-c1nc2c(c(C)nn2C)c(=O)[nH]1
Out: met

---

Could you please report measured pEC50 for the items listed next?
Target: cGMP-specific 3',5'-cyclic phosphodiesterase (Rattus norvegicus)
Test: Compound was tested for inhibition of stimulation of rat aortic smooth muscle cells (RSMC)
Answers are plain numbers, as −log10 of the molar value.

In: Indicate the recorded pEC50 value for this molecule: CCCOc1ccc(N)cc1-c1nc2c(c(C)nn2CC)c(=O)[nH]1
Out: 7.70

In: Identify the reported pEC50 for the following entry. CCCOc1ccc(NC(C)=O)cc1-c1nc2c(c(C)nn2C)c(=O)[nH]1
Out: 7.40

In: Output pEC50 of CCCOc1ccccc1-c1nc2ncncc2c(=O)[nH]1
Out: 5.12

State recorded pEC50 for all listed molecules.
1. CCCOc1ccc(NC(=O)Nc2ccc(F)cc2)cc1-c1nc2c(c(C)nn2C)c(=O)[nH]1
2. CCCOc1ccc(N(C)C)cc1-c1nc2c(c(C)nn2CC)c(=O)[nH]1
3. CCOc1ccccc1-c1nc2c(c(C)nn2C)c(=O)[nH]1
4. CCCOc1ccc(-c2nc(C)cs2)cc1-c1nc2c(c(C)nn2C)c(=O)[nH]1
5. CCCOc1ccc(-c2csc(C)n2)cc1-c1nc2c(c(C)nn2C)c(=O)[nH]1
6. CCCOc1ccc(-c2csc(-c3ccccc3)n2)cc1-c1nc2c(c(C)nn2CC)c(=O)[nH]1

Out:
[7.40, 5.82, 5.70, 6.35, 6.70, 6.70]

---

Record form. Attribute: pEC50. Fill in for each entry.
Target: cGMP-specific 3',5'-cyclic phosphodiesterase (Rattus norvegicus)
Test: Compound was tested for inhibition of stimulation of rat aortic smooth muscle cells (RSMC)
Numbers only, as −log10 of the molar value.

In: Check the records and state pEC50 for CCCOc1ccc(NC(=O)CN2CCN(C)CC2)cc1-c1nc2c(c(C)nn2C)c(=O)[nH]1
Out: 6.40

In: Retrieve pEC50 measured for CCCOc1ccccc1-c1nc(O)c2ccsc2n1 and print it.
Out: 5.60

In: State its pEC50 for this compound: CCCOc1ccccc1-c1nc2c(c(C)nn2CC(F)(F)F)c(=O)[nH]1
Out: 5.82

In: Assign pEC50 to the following record: CCCOc1ccc(NC(N)=O)cc1-c1nc2c(c(C)nn2C)c(=O)[nH]1
Out: 6.05

In: Annotate the compound CCCCn1nc(C)c2c(=O)[nH]c(-c3ccccc3OCCC)nc21 with its measured pEC50.
Out: 6.05

Please go through the list and note pEC50 for each compound.
1. CCCOc1ccccc1-c1nc2c(c(C)nn2C(C)(C)C)c(=O)[nH]1
2. CCCOc1ccccc1-c1nc2ccncc2c(=O)[nH]1
3. CCCOc1ccccc1-c1nc2c(c(C)nn2C)c(=O)[nH]1
4. CCCOc1ccc(-c2csc(-c3ccccc3)n2)cc1-c1nc2c(c(C)nn2C)c(=O)[nH]1

Out:
6.70
5.00
6.70
6.70

---

Target: UniProt:O76074
Quantity Name: IC50 (nM)
Answers are plain numbers, in nM.

In: Identify measured IC50 associated with CCCOc1ccc([N+](=O)[O-])cc1-c1nc2c(c(C)nn2C)c(=O)[nH]1
Out: 4

In: // fetch IC50 given entry CCCOc1ccc(N(C)C)cc1-c1nc2c(c(C)nn2CC)c(=O)[nH]1
Out: 4

In: Give the value of IC50 reported for the following: CCCOc1ccc(NC(C)=O)cc1-c1nc2c(c(C)nn2C)c(=O)[nH]1
Out: 0.8

For each of the compounds below, state IC50.
1. CCCOc1ccccc1-c1nc(O)c2sccc2n1
2. CCCOc1ccc(-c2csc(-c3cccnc3)n2)cc1-c1nc2c(c(C)nn2CC)c(=O)[nH]1
3. CCCCn1nc(C)c2c(=O)[nH]c(-c3ccccc3OCCC)nc21
4. CCCOc1ccc(-c2cccs2)cc1-c1nc2c(c(C)nn2C)c(=O)[nH]1
5. CCCOc1ccc(NC(=O)c2ccc(F)cc2)cc1-c1nc2c(c(C)nn2C)c(=O)[nH]1

Out:
1. 50
2. 2
3. 6
4. 5
5. 2

---

Biological target: cGMP-specific 3',5'-cyclic phosphodiesterase (Rattus norvegicus, UniProt O54735)
Experiment: Compound was tested for inhibition of stimulation of rat aortic smooth muscle cells (RSMC)
Type: functional
pEC50: −log10 of the molar value.
Quick rule: pEC50 of at least 7 means label 1, below that means label 0.

Below are worked cases with known answers.
In: Hello, I need to know if CCCOc1ccc(NC(=O)c2ccc(F)cc2)cc1-c1nc2c(c(C)nn2C)c(=O)[nH]1 has measured pEC50 not below 7. Thanks!
Out: label 1

In: Decide: pEC50 of CCCOc1ccccc1-c1nc2onc(C)c2c(=O)[nH]1 >= 7?
Out: label 0

In: hey, is pEC50 for this one >= 7? CCCOc1ccc(NC(=S)NCC)cc1-c1nc2c(c(C)nn2C)c(=O)[nH]1
Out: label 1

In: # check: pEC50 of CCCOc1ccc([N+](=O)[O-])cc1-c1nc2c(c(C)nn2CC)c(=O)[nH]1 is greater than or equal to 7
Out: label 1

In: Decide: pEC50 of CCCOc1ccccc1-c1nc(O)c2c(C)snc2n1 >= 7?
Out: label 0

***
In: Does CCCOc1ccccc1-c1nc2nc[nH]c2c(=O)[nH]1 have a reported pEC50 of at least 7?
Out: label 0

In: Say whether CCCOc1ccc(C(=O)CN2CCOCC2)cc1-c1nc2c(c(C)nn2C)c(=O)[nH]1 shows pEC50 of 7 or more.
Out: label 0

In: Decide: is the reported value of pEC50 for CCCOc1ccc(-c2cccs2)cc1-c1nc2c(c(C)nn2C)c(=O)[nH]1 equal to or greater than 7?
Out: label 0
